# Tested on: KMS28BM (cancer type: MM)
# assay remarks: normalized area under the dose-response curve (viability relative to DMSO control) (fraction); higher = less sensitive (more viable cells)
# test settings: exposure time not given
readout label: normalized area under the dose-response curve
Numbers only.

Here's what some known entries look like.
QUERY: Please give measured normalized area under the dose-response curve of the following entry: N#CC[C@H](C1CCCC1)n1cc(-c2ncnc3[nH]ccc23)cn1 [Ruxolitinib]
RESULT: 0.913

QUERY: Supply normalized area under the dose-response curve value. Item: CC(=O)c1c(C)c2cnc(Nc3ccc(N4CCNCC4)cn3)nc2n(C2CCCC2)c1=O [Palbociclib]
RESULT: 0.932

QUERY: Answer with the recorded normalized area under the dose-response curve for the molecule listed here: C/C=C1\NC(=O)[C@H]2CSSCC/C=C/[C@H](CC(=O)N[C@H](C(C)C)C(=O)N2)OC(=O)[C@H](C(C)C)NC1=O [Romidepsin]
RESULT: 0.271

QUERY: Answer with the recorded normalized area under the dose-response curve for the molecule listed here: COc1nc(N)nc2c1ncn2[C@@H]1O[C@H](CO)[C@@H](O)[C@@H]1O [Nelarabine]
RESULT: 0.924

QUERY: Give recorded normalized area under the dose-response curve. Cn1ncc(Cl)c1-c1cc(C(=O)N[C@H](CN)Cc2cccc(F)c2)sc1Cl [Afuresertib]
RESULT: 0.363

Give normalized area under the dose-response curve for each of the items listed below.
1. Cc1[nH]c2ccccc2c1CCNCc1ccc(/C=C/C(=O)NO)cc1 [Panobinostat]
2. CC(=O)Nc1cccc(-n2c(=O)n(C3CC3)c(=O)c3c(Nc4ccc(I)cc4F)n(C)c(=O)c(C)c32)c1 [Trametinib]

RESULT:
[0.567, 0.861]
